Test system: SF-268
EXPERIMENT_SUMMARY: NCI tumour cell line growth inhibition, 48 h
Active and inactive are the calls of the source. Cut-off read from the data, not from the text of the source: active = GI50 up to about 1.1 µM and inactive = higher.
METRIC_NAME: GI50

>>> value_reported("CN(C)c1nc(N(C)c2ccccc2)[s+]s1")
"63.5 µM (inactive)"
>>> value_reported("CC(C)(C)OC(=O)N(CCCCNCc1ccc2ccccc2c1)CCCNCc1ccc2ccccc2c1")
"1.77 µM (inactive)"
>>> value_reported("CC(=O)N1C(CCc2ccccc2)CC(C)(C=O)C1Cc1ccc(O[Si](C(C)C)(C(C)C)C(C)C)cc1 (stereo unspecified)")
"4.19 µM (inactive)"
>>> value_reported("COc1cc(OC)c2c(c1)C(=O)C(CC1(C)OCCCO1)=CC2=O")
"13.9 µM (inactive)"
>>> value_reported("NC(Cc1ccc(CP(=O)(O)O)cc1)C(=O)O (stereo unspecified)")
"> 100 µM (inactive)"
>>> value_reported("CCOC(=O)COc1cc(-c2ccccc2F)nc2cc3c(cc12)OCO3")
"> 100 µM (inactive)"
>>> value_reported("Cn1ncc(NCCn2cnc3c2c(=O)n(C)c(=O)n3C)c(Cl)c1=O")
"> 100 µM (inactive)"
>>> value_reported("Cc1cccc2c1Oc1cc(Cl)ccc1C2NC(=O)CN(C)C (stereo unspecified)")
"74.3 µM (inactive)"
>>> value_reported("Cc1cc(C)n(C2OC(CO)C(O)C(O)C2O)c(=S)c1C#N (stereo unspecified)")
"> 100 µM (inactive)"
>>> value_reported("Cc1ccc(Oc2ccccc2N)cc1")
"46.1 µM (inactive)"
>>> value_reported("COc1ccc(-c2nc(O)c3ccccc3n2)cc1")
"> 100 µM (inactive)"

This collection of values is drawn from ChEMBL document CHEMBL1201862.
